This section presents binders with their documented OD450 values.
Test target: T1, 4-1BB Fc (human, UniProt Q07011 24-183)
T1 construct: also called rh-41BB; 41BB-hFc
T1 sequence (Q07011 24-183): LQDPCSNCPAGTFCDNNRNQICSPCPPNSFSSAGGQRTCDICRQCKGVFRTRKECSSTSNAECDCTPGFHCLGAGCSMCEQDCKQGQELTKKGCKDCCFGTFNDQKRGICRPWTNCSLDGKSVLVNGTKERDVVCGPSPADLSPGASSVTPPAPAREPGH
Assay method text: ELISA, 4-1BB Fc coated, VHH at 0.00005 nM

Would you please look over these solved cases?
[
  {
    "Binder": "4-1BB-56 (VHH, not shown: small tags and cut ends) VHH: QVQLVESGGGLVQTGGSLRLSCAASGRISTIDTMFWYRQTPGKERDWVAFIPKDGLPTYVDSVKGRFTVSRDNARNTVYLQMNGLKPEDTAVYYCAVDVQEDRMRTYWGQGTQVTVSS",
    "Value observed": 0.129
  },
  {
    "Binder": "4-1BB-2 (VHH, not shown: small tags and cut ends) VHH: QVQLVESGGGLVQAGGSLRLSCAASGSIFSYNAMAWYRQAPGKQRELVALITSDRTTKYADSVKGRFTISRDDTKNTVDLEMNSLKPEDTAVYTCAALLNSARTSWGQGTQVTVSS",
    "Value observed": 0.065
  },
  {
    "Binder": "4-1BB-10 (VHH, not shown: small tags and cut ends) VHH: EVQLVESGGGLVQAGGSLRLSCAASGAIFSYNGMAWYRQAPGKQREFVAVITPDGTTKYGDSVKGRFTISRDITKNTVDLEMNSLKPEDTAVYTCAALRNSGSTSWGQGTQVTVSS",
    "Value observed": 0.068
  }
]

Consider now this further binder.
**Query** Name the reported OD450 value associated with the binder 4-1BB-1 (VHH, not shown: small tags and cut ends) VHH: QVQLVESGGGLVQAGGSLRLSCAASENIFSFNAMAWYRQAPGKQRELVALITGDGTTKYADSVKGRFTIARLNAKNTVNLEMNSLKPEDTAVYTCAALRNSDRTSWGQGTQVTVSS
**Result** 0.067

Hello, the source for this data is patent US20250376535A1, in case you need it.
